system-name: T1, human CCR8 (human, UniProt P51685 1-355)
T1 construct: Native CCR8 on human PBMC (CCR8+ CD3+ or CCR8+ CD4+ lymphocytes); also called chemokine (C-C motif) receptor 8
T1 sequence (P51685 whole entry): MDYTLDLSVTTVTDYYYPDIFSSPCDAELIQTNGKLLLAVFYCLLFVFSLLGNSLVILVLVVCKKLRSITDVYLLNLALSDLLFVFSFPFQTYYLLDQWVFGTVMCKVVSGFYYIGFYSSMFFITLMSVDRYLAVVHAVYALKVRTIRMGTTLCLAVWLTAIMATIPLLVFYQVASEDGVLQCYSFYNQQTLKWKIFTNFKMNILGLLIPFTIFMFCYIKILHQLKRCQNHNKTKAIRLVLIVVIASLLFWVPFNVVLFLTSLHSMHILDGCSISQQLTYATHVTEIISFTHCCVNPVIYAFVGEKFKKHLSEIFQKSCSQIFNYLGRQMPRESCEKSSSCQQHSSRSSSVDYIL
experimental-details: flow blocking, PBMC CCR8+CD4+; competitor PE-AB4
Provide the recorded % Blocking for the entries that follow.
Number only, in %; omit the unit.

Enquiry: Fill in: % Blocking of AB1 (antibody, V domains shown, Hybridoma monoclonal (mouse or rat); Same VH/VL entries as AB2; also called antibody 1; clone 1) VH: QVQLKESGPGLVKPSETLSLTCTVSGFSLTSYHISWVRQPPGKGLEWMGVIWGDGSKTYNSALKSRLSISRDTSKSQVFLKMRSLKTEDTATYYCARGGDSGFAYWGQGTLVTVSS VL: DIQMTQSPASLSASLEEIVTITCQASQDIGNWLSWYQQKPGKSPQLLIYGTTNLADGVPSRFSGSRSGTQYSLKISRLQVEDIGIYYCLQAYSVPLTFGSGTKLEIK is ___
Return: 96.1

Enquiry: Further, for AB11 (antibody, V domains shown, Hybridoma monoclonal; also called antibody 11; clone 11) VH: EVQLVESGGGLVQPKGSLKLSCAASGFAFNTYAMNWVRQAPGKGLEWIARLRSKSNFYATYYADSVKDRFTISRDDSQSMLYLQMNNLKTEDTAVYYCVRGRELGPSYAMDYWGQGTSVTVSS VL: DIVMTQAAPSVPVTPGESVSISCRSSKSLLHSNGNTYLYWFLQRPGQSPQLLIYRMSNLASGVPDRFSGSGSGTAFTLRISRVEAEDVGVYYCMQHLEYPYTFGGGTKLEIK ?
Return: -27

Enquiry: Further, for AB5 (antibody, V domains shown, Hybridoma monoclonal; Same VH/VL entries as AB6; also called antibody 5; clone 5) VH: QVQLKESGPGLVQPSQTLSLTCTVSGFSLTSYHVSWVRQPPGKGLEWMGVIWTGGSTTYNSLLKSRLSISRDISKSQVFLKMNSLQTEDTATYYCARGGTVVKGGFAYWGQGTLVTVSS VL: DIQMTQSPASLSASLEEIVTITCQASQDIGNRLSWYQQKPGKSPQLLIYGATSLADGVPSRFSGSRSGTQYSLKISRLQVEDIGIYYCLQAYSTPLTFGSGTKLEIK ?
Return: 93.3

Enquiry: Further, for AB14 (antibody, V domains shown, Hybridoma monoclonal; Same VH/VL entries as AB15; also called antibody 14; clone 14) VH: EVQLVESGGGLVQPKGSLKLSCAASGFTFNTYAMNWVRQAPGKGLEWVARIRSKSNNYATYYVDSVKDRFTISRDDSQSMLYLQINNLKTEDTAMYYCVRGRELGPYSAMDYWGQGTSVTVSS VL: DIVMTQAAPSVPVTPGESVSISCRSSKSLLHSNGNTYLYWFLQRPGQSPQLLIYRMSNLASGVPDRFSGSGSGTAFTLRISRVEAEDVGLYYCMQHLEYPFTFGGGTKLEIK ?
Return: -10.1
